Data origin, for the record: paper PMC11298430

Listing of entries alongside the reported CC50 at 24 h.
- protocol-summary: MTT cytotoxicity assay
- Assay type: cell-based
- condition-notes: human

Answered cases to consult:
COc1cc(C)c(-c2c(C)cc(OC)c(C(=O)/C=C/c3ccc(Br)cc3)c2O)c(O)c1C(=O)/C=C/c1ccc(Br)cc1 [2ae]: > 200 µM
COc1cc(OC)c(-c2c(OC)cc(OC)c(C(=O)/C=C/c3ccc(C(F)(F)F)cc3)c2O)c(O)c1C(=O)/C=C/c1ccc(C(F)(F)F)cc1 [2bd]: > 200 µM
COc1cc(C)cc(O)c1C(=O)/C=C/c1ccc(Br)cc1 [1ae]: 190 µM
COc1cc(C)c(-c2c(C)cc(OC)c(C(=O)/C=C/c3cccc(Br)c3)c2O)c(O)c1C(=O)/C=C/c1cccc(Br)c1 [2af]: > 200 µM
COc1cc(OC)c(-c2c(OC)cc(OC)c(C(=O)/C=C/c3ccccc3)c2O)c(O)c1C(=O)/C=C/c1ccccc1 [2bb]: > 200 µM

Exercise: Look at this compound and give its reported CC50 at 24 h. COc1cc(C)c(-c2c(C)cc(OC)c(C(=O)/C=C/c3ccc(C(F)(F)F)cc3)c2O)c(O)c1C(=O)/C=C/c1ccc(C(F)(F)F)cc1 [2ad]
Solution: > 200 µM

Exercise: CC50 at 24 h for COc1cc(C)cc(O)c1C(=O)/C=C/c1ccc(C(F)(F)F)cc1 [1ad] ?
Solution: > 200 µM

Exercise: Fill in: CC50 at 24 h of COc1ccc(/C=C/C(=O)c2c(OC)cc(OC)c(-c3c(OC)cc(OC)c(C(=O)/C=C/c4ccc(OC)cc4)c3O)c2O)cc1 [2ba] is ___
Solution: > 200 µM

Exercise: // lookup CC50 at 24 h for COc1cc(C)c(-c2c(C)cc(OC)c(C(=O)/C=C/c3ccccc3Br)c2O)c(O)c1C(=O)/C=C/c1ccccc1Br [2ag]
Solution: > 200 µM

Exercise: Quick check: CC50 at 24 h of COc1cc(O)c(C(=O)/C=C/c2cccc(Br)c2)c(OC)c1 [1bf] ?
Solution: > 200 µM

Exercise: Can you share its CC50 at 24 h? I mean this compound: CCc1nc(N)nc(N)c1-c1ccc(Cl)cc1 [PYR, pyrimethamine, reference compound]
Solution: > 100 µM

Exercise: What CC50 at 24 h value was documented for this compound, COc1cc(OC)c(-c2c(OC)cc(OC)c(C(=O)/C=C/c3cccc(Br)c3)c2O)c(O)c1C(=O)/C=C/c1cccc(Br)c1 [2bf] ?
Solution: > 200 µM

---

- System: human fibroblasts Hs27
- protocol-summary: MTT cytotoxicity assay
- Assay type: cell-based
- condition-notes: 24 h
observable: CC50

Exercise: Quick check: CC50 of COc1cc(C)c(-c2c(C)cc(OC)c(C(=O)/C=C/c3ccccc3)c2O)c(O)c1C(=O)/C=C/c1ccccc1 (single isomer, unassigned) [(R a)-2ab] ?
Solution: > 200 µM

---

- protocol-summary: MTT cytotoxicity assay
- Type: cell-based
- condition-notes: human
- Method: The MTT [3-(4, 5-dimethylthiazole-2-yl)-2, 5-diphenyltetrazolium bromide] reduction assay ([Mosmann, 1983]) was used to quantify the cytotoxic effects of the examined chalcones and bichalcones on the host cells. To avoid edge effects, only the inner 60 wells of each plate were used. […] Optical density (O.D.) was measured at 570 nm using a microplate reader (TECAN Sunrise, Männedorf, Switzerland). […] In addition, the selectivity index (SI) of each compound was calculated from the ratio of CC50/IC50.
The following molecules are shown together with reported CC50 at 24 h values.

Exercise: Would you mind telling me what CC50 at 24 h value was observed for COc1cc(OC)c(-c2c(OC)cc(OC)c(C(=O)/C=C/c3ccc(N(C)C)cc3)c2O)c(O)c1C(=O)/C=C/c1ccc(N(C)C)cc1 ?
Solution: > 200 µM

Exercise: Look at this molecule and give its reported CC50 at 24 h. COc1ccc(/C=C/C(=O)c2c(O)cc(OC)cc2OC)cc1
Solution: > 200 µM

Exercise: Sample COc1cc(C)c(-c2c(C)cc(OC)c(C(=O)/C=C/c3ccc(N(C)C)cc3)c2O)c(O)c1C(=O)/C=C/c1ccc(N(C)C)cc1 — what was its CC50 at 24 h?
Solution: > 200 µM

---

- protocol-summary: MTT cytotoxicity assay
- Format: cell-based
- condition-notes: human
- Protocol: The MTT [3-(4, 5-dimethylthiazole-2-yl)-2, 5-diphenyltetrazolium bromide] reduction assay ([Mosmann, 1983]) was used to quantify the cytotoxic effects of the examined chalcones and bichalcones on the host cells. To avoid edge effects, only the inner 60 wells of each plate were used. […] Optical density (O.D.) was measured at 570 nm using a microplate reader (TECAN Sunrise, Männedorf, Switzerland). […] In addition, the selectivity index (SI) of each compound was calculated from the ratio of CC50/IC50.
observable: CC50 at 24 h

Exercise: Returns the measured CC50 at 24 h for the input compound. Input: COc1ccc(/C=C/C(=O)c2c(OC)cc(C)c(-c3c(C)cc(OC)c(C(=O)/C=C/c4ccc(OC)cc4)c3O)c2O)cc1 [2aa]
Solution: > 200 µM

Exercise: What CC50 at 24 h value was documented for this compound, COc1cc(C)cc(O)c1C(=O)/C=C/c1cccc(Br)c1 [1af] ?
Solution: 134 µM

Exercise: // returns reported CC50 at 24 h for input COc1cc(C)cc(O)c1C(=O)/C=C/c1ccccc1Br [1ag]
Solution: > 200 µM

Exercise: Query (compound): COc1cc(O)c(C(=O)/C=C/c2ccc(C(F)(F)F)cc2)c(OC)c1 [1bd] ; field requested: CC50 at 24 h
Solution: > 200 µM

Exercise: Field request: CC50 at 24 h | item: COc1cc(C)c(-c2c(C)cc(OC)c(C(=O)/C=C/c3ccccc3)c2O)c(O)c1C(=O)/C=C/c1ccccc1 (single isomer, unassigned) [(S a)-2ab]
Solution: > 200 µM

Exercise: Given the entry COc1cc(OC)c(-c2c(OC)cc(OC)c(C(=O)/C=C/c3ccc(Br)cc3)c2O)c(O)c1C(=O)/C=C/c1ccc(Br)cc1 [2be] , report its measured CC50 at 24 h.
Solution: > 200 µM

---

- protocol-summary: MTT cytotoxicity assay
- Format: cell-based
- condition-notes: human
observable: CC50 at 24 h (µM)
Answer in µM, number only, no unit symbol.

COc1cc(C)cc(O)c1C(=O)/C=C/c1ccccc1 [1ab]: 133

Exercise: Which CC50 at 24 h reading was recorded for the compound COc1ccc(/C=C/C(=O)c2c(O)cc(C)cc2OC)cc1 [1aa] ?
Solution: 180

Exercise: Quick check: CC50 at 24 h of COc1cc(O)c(C(=O)/C=C/c2ccccc2)c(OC)c1 [1bb] ?
Solution: 87.8

---

- protocol-summary: MTT cytotoxicity assay
- Type: cell-based
- condition-notes: human
A collection of compounds and their measured CC50 at 24 h

COc1cc(OC)c(-c2c(OC)cc(OC)c(C(=O)/C=C/c3ccccc3Br)c2O)c(O)c1C(=O)/C=C/c1ccccc1Br [2bg]: > 200 µM
COc1cc(C)c(-c2c(C)cc(OC)c(C(=O)/C=C/c3ccccc3)c2O)c(O)c1C(=O)/C=C/c1ccccc1 (racemic) [2ab]: > 200 µM

Kindly consider the entry below.
Exercise: Quick one: CC50 at 24 h of COc1cc(C)cc(O)c1C(=O)/C=C/c1ccc(N(C)C)cc1 [1ac] ?
Solution: > 200 µM
